target: human trace amine-associated receptor 1 (TAAR1) (Homo sapiens, UniProt Q96RJ0); construct: expressed in transfected cells; test: TAAR1 activation, intracellular cAMP (ELISA) in HEK293T cells stably expressing human TAAR1; format: cell-based; conditions: HEK-293T, % of maximal cAMP level obtained by phenethylamine; average (95% CI)
Sequence (Q96RJ0 whole entry): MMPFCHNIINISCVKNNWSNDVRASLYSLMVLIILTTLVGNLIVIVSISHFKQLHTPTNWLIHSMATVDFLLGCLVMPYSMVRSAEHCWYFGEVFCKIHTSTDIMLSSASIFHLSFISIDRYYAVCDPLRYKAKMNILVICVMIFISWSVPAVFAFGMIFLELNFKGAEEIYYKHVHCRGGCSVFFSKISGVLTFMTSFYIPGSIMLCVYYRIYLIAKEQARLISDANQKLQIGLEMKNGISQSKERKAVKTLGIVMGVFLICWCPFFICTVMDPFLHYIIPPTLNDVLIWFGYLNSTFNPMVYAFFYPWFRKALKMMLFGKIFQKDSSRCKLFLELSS
Classify by measured Emax: 1 if it is equal to or exceeds 80%, 0 if it is smaller.

- Oc1ccc(CC2NCCc3cc(O)c(O)cc32)cc1 (centres unmarked): 1
- NCCc1ccccc1: 1
- CC(C)NCC(O)c1ccc(O)cc1 (centres unmarked): 0
- NCCc1ccc(O)cc1: 0
